- test.target: Tyrosine-protein kinase Lyn (Homo sapiens, UniProt P07948)
- Sequence (P07948 whole entry): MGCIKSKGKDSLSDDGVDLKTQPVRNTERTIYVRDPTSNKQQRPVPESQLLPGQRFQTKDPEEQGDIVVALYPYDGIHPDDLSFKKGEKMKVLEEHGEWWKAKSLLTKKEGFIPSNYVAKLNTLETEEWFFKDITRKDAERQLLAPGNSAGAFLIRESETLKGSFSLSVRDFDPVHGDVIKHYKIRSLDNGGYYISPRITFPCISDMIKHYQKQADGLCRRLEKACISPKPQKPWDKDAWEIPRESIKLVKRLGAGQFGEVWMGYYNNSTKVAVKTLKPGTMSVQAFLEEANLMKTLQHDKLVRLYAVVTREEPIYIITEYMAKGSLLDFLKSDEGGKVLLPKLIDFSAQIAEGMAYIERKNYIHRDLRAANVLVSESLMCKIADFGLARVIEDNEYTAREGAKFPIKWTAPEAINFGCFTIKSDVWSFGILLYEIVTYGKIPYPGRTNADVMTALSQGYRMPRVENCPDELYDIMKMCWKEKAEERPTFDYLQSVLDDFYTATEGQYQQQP
- run.description: Inhibition of Lyn A using ATP preincubated with compound for 5 mins measured after 10 mins
result.type: IC50
Phrase the answer as number then unit, nothing more needed.

Indicate its recorded IC50; the compound in question is CC(C)(N)C(=O)NCCn1ccc2ncnc(Nc3ccc(Oc4cccc5sncc45)c(Cl)c3)c21
7.1 µM

* * *

- test.target: Dual specificity mitogen-activated protein kinase kinase 5 (Homo sapiens, UniProt Q13163)
- Sequence (Q13163 whole entry): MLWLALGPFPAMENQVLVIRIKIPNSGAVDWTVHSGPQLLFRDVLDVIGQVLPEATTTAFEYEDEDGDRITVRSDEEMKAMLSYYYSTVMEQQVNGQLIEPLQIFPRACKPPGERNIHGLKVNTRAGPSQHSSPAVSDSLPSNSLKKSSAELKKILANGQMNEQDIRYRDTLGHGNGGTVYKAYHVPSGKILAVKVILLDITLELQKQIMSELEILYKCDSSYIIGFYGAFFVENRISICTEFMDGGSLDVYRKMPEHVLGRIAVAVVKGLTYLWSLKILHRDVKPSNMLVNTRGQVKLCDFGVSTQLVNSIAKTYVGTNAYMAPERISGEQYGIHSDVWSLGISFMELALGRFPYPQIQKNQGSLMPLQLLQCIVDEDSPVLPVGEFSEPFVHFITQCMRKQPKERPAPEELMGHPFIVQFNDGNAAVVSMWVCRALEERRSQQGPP
- run.description: Inhibition of N-terminus FLAG-tagged MEK5 expressed in baculovirus expression system using [gamma-33P]-ATP measured after 30 mins by scintillation counting
result.type: IC50

Lab note: record IC50 of CC(C)(N)C(=O)NCCn1ccc2ncnc(Nc3ccc(Oc4cccc5sncc45)c(Cl)c3)c21 tested on Dual specificity mitogen-activated protein kinase kinase 5 (Homo sapiens, UniProt Q13163).
> 10 µM
